Recorded Population Hoechst High Intensity Objects (%) values for a group of compounds are listed next.
test system: HEK-293T; assay: Multiplex assay against HEK293T; assay type: toxicity, cell-based; conditions: human, 48 h, 10 µM, compound concentration 10 uM, replicate 2
value type: Population Hoechst High Intensity Objects (%)

{"compound": "O=C(O)c1ccc2cc(-c3ccc(O)c(C45CC6CC(CC(C6)C4)C5)c3)ccc2c1", "reading unit": "%", "measured result": 9}
{"compound": "C1=N/C2=N/c3ccc(OCCN4CCCC4)c(c3)COC/C=C\\COCc3cccc(c3)C(=C1)N2", "reading unit": "%", "measured result": 15}
{"compound": "CCn1c(-c2nonc2N)nc2cnc(Oc3cccc(NC(=O)c4ccc(OCCN5CCOCC5)cc4)c3)cc21 [GSK-269962A]", "reading unit": "%", "measured result": 7}
{"compound": "CCCn1c(=O)c2[nH]c(C34CC5CC(CC3C5)C4)nc2n(CCC)c1=O", "reading unit": "%", "measured result": 7}
{"compound": "CC(C)N1CCC(C)(C)c2cc(C#Cc3ccc(C(=O)O)cc3)ccc21", "reading unit": "%", "measured result": 52}
{"compound": "COc1ccc(NS(=O)(=O)c2sc3ccc(Cl)cc3c2C)cc1N1CCNCC1.Cl", "reading unit": "%", "measured result": 15}
{"compound": "CC(=O)c1cc(-c2cc(C(=O)NC3CC3)ccc2C)c2ncccn12", "reading unit": "%", "measured result": 3}
{"compound": "CCc1cc2c(cc1CC)CC(NC[C@H](O)c1ccc(O)c3[nH]c(=O)ccc13)C2", "reading unit": "%", "measured result": 17}
{"compound": "COc1cc2c(NC3CCN(C(C)C)CC3)nc(N3CCC(F)(F)CC3)nc2cc1OCCCN1CCCC1", "reading unit": "%", "measured result": 21}
{"compound": "CNc1oc(-c2cccc3ccccc23)nc1C#N", "reading unit": "%", "measured result": 52}

---

system: U2OS; assay: Multiplex assay against U2OS; format: toxicity, cell-based; conditions: human, 24 h, 1 µM, compound concentration 1 uM, replicate 2
Just a reminder that ties go to Criterion not met: only Population Normal (%) strictly below 90% counts as Criterion met.

{"molecule": "CCCn1c(=O)c2[nH]c(C34CC5CC(CC3C5)C4)nc2n(CCC)c1=O [ROLOFYLLINE]", "target under test": "U2OS", "answer label": "Criterion not met"}
{"molecule": "CN(C)CCOc1ccc(-c2nc(-c3ccncc3)c(-c3ccc4c(c3)CC/C4=N\\O)[nH]2)cc1 [SB590885]", "target under test": "U2OS", "answer label": "Criterion met"}
{"molecule": "c1ccc2oc(-c3csc(C4CCN(Cc5nc6ncccc6[nH]5)CC4)n3)cc2c1", "target under test": "U2OS", "answer label": "Criterion not met"}
{"molecule": "CNC(=O)c1nn(C)c2c1C(C)(C)Cc1cnc(Nc3ccc(N4CCN(C)CC4)cc3)nc1-2 [MILCICLIB]", "target under test": "U2OS", "answer label": "Criterion met"}
{"molecule": "N#Cc1cnc(Nc2cc(NC[C@H]3CNCCO3)c(C(F)(F)F)cn2)cn1 [SRA-737]", "target under test": "U2OS", "answer label": "Criterion not met"}
{"molecule": "CCOc1cc(N2CCC(O)CC2)ccc1Nc1ncc2c(n1)N(C1CCCC1)CCC(=O)N2C", "target under test": "U2OS", "answer label": "Criterion not met"}
{"molecule": "Cc1cn(-c2cc(NC(=O)c3ccc4c(c3)CN(c3cncnc3)C[C@@H]4C)cc(C(F)(F)F)c2)cn1", "target under test": "U2OS", "answer label": "Criterion not met"}
{"molecule": "CCn1c(-c2nonc2N)nc2cnc(Oc3cccc(NC(=O)c4ccc(OCCN5CCOCC5)cc4)c3)cc21 [GSK-269962A]", "target under test": "U2OS", "answer label": "Criterion not met"}
{"molecule": "Nc1ccc(C(=O)Nc2cccc(-c3nc(N4CCOCC4)c4oc5ncccc5c4n3)c2)cn1", "target under test": "U2OS", "answer label": "Criterion not met"}
{"molecule": "Cl.Cl.Nc1ncnc2c1c(-c1cccc(OCc3ccccc3)c1)cn2[C@H]1C[C@@H](CN2CCC2)C1", "target under test": "U2OS", "answer label": "Criterion not met"}
{"molecule": "CC(C)N1CCC(C)(C)c2cc(C#Cc3ccc(C(=O)O)cc3)ccc21", "target under test": "U2OS", "answer label": "Criterion not met"}

Source: ChEMBL document CHEMBL4689842
